tested_system: PAR4 (Homo sapiens (Human), UniProt Q96RI0)
Sequence (Q96RI0 18-385): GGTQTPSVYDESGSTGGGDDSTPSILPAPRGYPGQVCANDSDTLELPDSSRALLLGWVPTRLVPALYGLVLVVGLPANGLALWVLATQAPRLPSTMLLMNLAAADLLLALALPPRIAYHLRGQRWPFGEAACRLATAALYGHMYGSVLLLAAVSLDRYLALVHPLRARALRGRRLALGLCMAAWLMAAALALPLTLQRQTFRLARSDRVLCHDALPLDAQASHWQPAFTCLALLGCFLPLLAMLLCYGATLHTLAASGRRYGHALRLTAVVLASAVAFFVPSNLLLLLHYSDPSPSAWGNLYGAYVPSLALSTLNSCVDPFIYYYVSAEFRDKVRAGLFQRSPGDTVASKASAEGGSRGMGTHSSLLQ
assay_name: FLIPR assay in PAR4-expressing HEK293 cells (PAR4 antagonist activity, calcium mobilization)
Format: cell-based
conditions: H-Ala-Phe(4-F)-Pro-Gly-Trp-Leu-Val-Lys-Asn-Gly-NH2-induced calcium mobilization
measurement_type: EC50 (nM)

COc1cc(OCc2csc(-c3ccc(C(=O)N(C)CCO)cc3)n2)c2cc(-c3cn4nc(OC)sc4n3)oc2c1 ... 0.42
COc1cc(OCc2csc(N3CCSCC3)n2)c2cc(-c3cn4nc(C)ccc4n3)oc2c1 [Example 258] ... 0.81
COc1cc(OCc2csc(N3CCSCC3)n2)c2cc(-c3cn4nc(OC)sc4n3)oc2c1 ... 0.52
COc1cc(OCc2csc(C3(OC)CCOCC3)n2)c2cc(-c3cn4nc(OC)sc4n3)oc2c1 ... 0.45

[a] COc1cc(OCc2csc(-c3ccc(C(=O)N4CCC(C)CC4)cc3)n2)c2cc(-c3cn4nc(OC)sc4n3)oc2c1
[b] COC[C@@H]1CCCN1c1nc(COc2cc(OC)cc3oc(-c4cn5nc(OC)sc5n4)cc23)cs1
[c] COc1cc(OCc2csc(N3CCN(S(=O)(=O)c4ccc(C#N)cc4)CC3)n2)c2cc(-c3cn4nc(C)ccc4n3)oc2c1
[d] COc1cc(OCc2csc(Nc3cccc(C#N)c3)n2)c2cc(-c3cn4nc(C)ccc4n3)oc2c1
input: Would you mind ranking these compounds by ascending EC50? // rank by listing labels in the order requested
output: a, b, c, d
(a: 0.44 nM, b: 1.3 nM, c: 3.5 nM, d: 7 nM)
